These entries and their values trace back to the supplement of paper PMC10065799.

- Measurement Target: Fes (UniProt P07332)
- Sequence (P07332 whole entry, looked up): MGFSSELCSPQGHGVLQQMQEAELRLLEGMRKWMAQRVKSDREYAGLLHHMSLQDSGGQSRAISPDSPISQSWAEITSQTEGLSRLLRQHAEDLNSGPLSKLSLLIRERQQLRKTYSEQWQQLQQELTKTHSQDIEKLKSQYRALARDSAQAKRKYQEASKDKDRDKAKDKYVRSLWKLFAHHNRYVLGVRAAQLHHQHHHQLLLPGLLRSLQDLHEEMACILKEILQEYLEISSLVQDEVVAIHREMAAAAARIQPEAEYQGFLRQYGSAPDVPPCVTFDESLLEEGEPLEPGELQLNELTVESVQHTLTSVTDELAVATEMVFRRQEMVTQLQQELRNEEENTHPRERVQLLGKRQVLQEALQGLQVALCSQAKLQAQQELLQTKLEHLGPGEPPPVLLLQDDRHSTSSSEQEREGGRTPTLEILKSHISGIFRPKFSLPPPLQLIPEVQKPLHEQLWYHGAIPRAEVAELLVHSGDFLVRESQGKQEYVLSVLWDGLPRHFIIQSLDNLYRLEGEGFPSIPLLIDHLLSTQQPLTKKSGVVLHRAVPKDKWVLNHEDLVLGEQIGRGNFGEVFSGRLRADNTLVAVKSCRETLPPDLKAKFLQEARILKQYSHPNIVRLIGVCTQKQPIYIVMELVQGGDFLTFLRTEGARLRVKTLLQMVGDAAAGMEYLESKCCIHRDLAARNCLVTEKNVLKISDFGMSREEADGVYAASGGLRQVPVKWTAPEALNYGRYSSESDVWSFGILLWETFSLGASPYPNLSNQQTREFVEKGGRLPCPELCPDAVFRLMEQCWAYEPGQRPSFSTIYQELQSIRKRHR
- Assay Procedure: phosphorylation enrichment, bacterial display (enrichment ratio); higher = better substrate or ligand; peptides without Tyr show the background;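 further: 11-residue human phosphosite peptides and single-mutation variants displayed on the E. coli surface, counted by deep sequencing, each peptide's frequency after selection divided by its frequency in the unselected input library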;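 further: frequency after pTyr selection over input frequency; kinase dosed for 20-30% of maximal phosphorylation in three min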
Output met for phosphorylation enrichment not less than 0.9; output not met otherwise.

**Query** Does NARGLYYKLHN [GATA2_Y376_C373R] have a reported phosphorylation enrichment of at least 0.9?
**Result** met

**Query** Threshold query (phosphorylation enrichment >= 0.9) on AHAGEHGAEAL [HBA1_Y25_Y25H]
**Result** not met

**Query** State whether the measured phosphorylation enrichment reaches 0.9, counting equality as reaching it, for TGDFGYRAPGY [TNS2_Y668]
**Result** not met

**Query** Is phosphorylation enrichment at least 0.9? Consider EVGHVYLFLQP [ITGA2B_Y360_R358H]
**Result** met

**Query** Has GRLPEYNTPIA [CCDC151_Y542_R545P] a recorded phosphorylation enrichment greater than or equal to 0.9?
**Result** not met

**Query** Could you please find out whether ADNSAYLMGLN [MYH7_Y386_K383N] has phosphorylation enrichment that meets 0.9 or exceeds it?
**Result** met

**Query** Decide: phosphorylation enrichment of SVTCTYCPALN [TP53_Y126_S127C] >= 0.9?
**Result** not met

**Query** phosphorylation enrichment >= 0.9 for ACRSLYGGFVE [MVD_Y164] ?
**Result** met

**Query** Reported phosphorylation enrichment at or above 0.9? MDNQEYKDAYT [BRDT_Y331_K336T]
**Result** met

**Query** Does phosphorylation enrichment meet or surpass 0.9 for FSNKLYFQLEQ [PDPR_Y109_YF] ?
**Result** met

**Query** Would you say KGLMPYGQPRP [SRRT_Y798_Q793K] shows phosphorylation enrichment at minimum 0.9?
**Result** not met

**Query** Is phosphorylation enrichment at least 0.9? Consider QQIFTYDSGIH [JUP_Y22_T19I_YF]
**Result** met

**Query** In plain terms: is recorded phosphorylation enrichment at least 0.9 for GSETPYMDRTP [ESS2_Y335_V336M] ?
**Result** not met

**Query** Please tell me: is the sequence PGVDIYISPNM [PADI3_Y51] at or over 0.9 in terms of phosphorylation enrichment?
**Result** met

**Query** Could you verify whether the entry TNDRLYLRSLE [MTM1_Y71_Y68D] shows phosphorylation enrichment of no less than 0.9?
**Result** met

###

- Measurement Target: EPHB2 (UniProt P29323)
- Sequence (P29323 whole entry, looked up): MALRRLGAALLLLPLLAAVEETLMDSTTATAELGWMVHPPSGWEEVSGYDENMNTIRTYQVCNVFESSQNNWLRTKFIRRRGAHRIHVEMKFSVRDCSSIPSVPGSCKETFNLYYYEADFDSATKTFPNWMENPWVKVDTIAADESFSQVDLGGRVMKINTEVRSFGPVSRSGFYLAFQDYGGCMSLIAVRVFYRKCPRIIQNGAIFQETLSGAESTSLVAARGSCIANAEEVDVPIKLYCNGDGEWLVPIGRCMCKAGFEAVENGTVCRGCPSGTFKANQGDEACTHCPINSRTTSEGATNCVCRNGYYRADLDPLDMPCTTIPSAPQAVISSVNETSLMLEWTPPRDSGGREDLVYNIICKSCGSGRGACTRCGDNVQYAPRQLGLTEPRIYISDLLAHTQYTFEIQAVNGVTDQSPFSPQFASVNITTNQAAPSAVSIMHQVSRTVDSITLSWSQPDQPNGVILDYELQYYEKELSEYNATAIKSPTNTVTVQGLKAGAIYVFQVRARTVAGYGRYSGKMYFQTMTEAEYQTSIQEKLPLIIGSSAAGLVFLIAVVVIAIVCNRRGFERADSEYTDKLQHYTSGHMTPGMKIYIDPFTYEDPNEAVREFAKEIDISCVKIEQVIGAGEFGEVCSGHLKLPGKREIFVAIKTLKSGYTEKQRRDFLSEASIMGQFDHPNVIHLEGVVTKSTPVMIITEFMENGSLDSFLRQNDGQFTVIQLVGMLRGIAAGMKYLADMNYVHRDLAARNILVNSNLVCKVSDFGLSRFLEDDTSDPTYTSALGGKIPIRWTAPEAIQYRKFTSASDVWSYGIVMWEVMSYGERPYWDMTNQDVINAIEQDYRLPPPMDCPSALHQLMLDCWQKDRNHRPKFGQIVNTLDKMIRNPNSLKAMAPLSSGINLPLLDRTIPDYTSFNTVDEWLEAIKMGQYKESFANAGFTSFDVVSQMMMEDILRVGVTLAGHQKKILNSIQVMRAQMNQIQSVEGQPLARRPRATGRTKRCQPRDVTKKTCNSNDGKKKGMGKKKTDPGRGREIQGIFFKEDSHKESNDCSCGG
- Assay Procedure: phosphorylation enrichment, bacterial display (enrichment ratio); higher = better substrate or ligand; peptides without Tyr show the background
Answer each item with its documented phosphorylation enrichment.
Respond numerically, and do not add a unit to the figure.

**Query** phosphorylation enrichment lookup needed for LLSVAYQNVVG [YWHAG_Y49_K50Q] , thanks.
**Result** 1.07

**Query** // lookup phosphorylation enrichment for IHADICRWFNI [MARS1_Y344_Y344C]
**Result** 0.546

**Query** Query: phosphorylation enrichment; subject: HYEFKYVINAI [MAOA_Y268_C266F]
**Result** 0.782

**Query** Record request: phosphorylation enrichment value, item KRRGPYEMSPS [PLPP7_Y172_T174M]
**Result** 0.371

**Query** I am curious: what phosphorylation enrichment value has been reported for RLAKRYLIWEC [SCN5A_Y694_Q692K] ?
**Result** 0.604

**Query** // lookup phosphorylation enrichment for QKTGDYFDLFG [PTPN11_Y62_N58K_YF]
**Result** 6.35

**Query** Param item = NPQKSYFILLY [WAS_Y83_R86L] ; retrieve measured phosphorylation enrichment.
**Result** 0.551

**Query** Please give the measured phosphorylation enrichment for this sequence: EILLSYLRTGY [TGM1_Y365]
**Result** 0.612

###

- Measurement Target: Hck (UniProt P08631)
- Sequence (P08631 whole entry, looked up): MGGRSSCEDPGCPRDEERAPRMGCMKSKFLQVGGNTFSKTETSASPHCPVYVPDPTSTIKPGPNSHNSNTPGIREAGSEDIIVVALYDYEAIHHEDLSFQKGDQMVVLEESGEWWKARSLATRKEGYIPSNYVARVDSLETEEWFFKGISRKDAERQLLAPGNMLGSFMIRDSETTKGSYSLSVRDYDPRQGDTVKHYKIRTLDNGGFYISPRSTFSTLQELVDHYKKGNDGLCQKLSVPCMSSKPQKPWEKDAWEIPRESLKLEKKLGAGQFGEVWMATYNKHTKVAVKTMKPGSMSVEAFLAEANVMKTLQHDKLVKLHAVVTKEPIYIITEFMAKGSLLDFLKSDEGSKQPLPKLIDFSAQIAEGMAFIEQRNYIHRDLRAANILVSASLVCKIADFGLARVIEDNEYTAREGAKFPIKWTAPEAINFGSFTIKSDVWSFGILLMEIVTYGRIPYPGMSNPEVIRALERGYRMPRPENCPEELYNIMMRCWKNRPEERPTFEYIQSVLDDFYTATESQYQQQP
- Assay Procedure: phosphorylation enrichment, bacterial display (enrichment ratio); higher = better substrate or ligand; peptides without Tyr show the background
Give phosphorylation enrichment for every item shown.

**Query** # input sequence: ELELLYLDRNS [NYX_Y284] ; wanted: its phosphorylation enrichment
**Result** 0.551

**Query** Form field: reported phosphorylation enrichment of GHNDVYISEHV [GRIN2A_Y1423]
**Result** 0.438

**Query** I have this sequence here, IHADICRWFNI [MARS1_Y344_Y344C] , and I need its recorded phosphorylation enrichment.
**Result** 0.497

**Query** So what's the measured phosphorylation enrichment for this one? RHPFFFAPELL [ALB_Y174_Y174F_YF]
**Result** 0.859

**Query** If you can, please state the reported phosphorylation enrichment value of LVIIKYLPEWT [PSEN1_Y240_F237I] .
**Result** 1.21

**Query** Give the measured phosphorylation enrichment of ERSMSYCDESR [SMG1_Y143_S144C] .
**Result** 0.402

**Query** Requested field: phosphorylation enrichment. Item: WQQQSYLGSGI [CTNNB1_Y30_D32G]
**Result** 0.471

**Query** Look up phosphorylation enrichment for this sequence: WAFNLYDINKY [KCNIP3_Y174_D179Y]
**Result** 3.09

**Query** Any idea what phosphorylation enrichment was measured for RKRQFYLYKGK [RSPO4_Y112_C107R] ?
**Result** 0.358

**Query** Please give the measured phosphorylation enrichment for this sequence: DTFDPYLDVAL [USP36_Y268_YF]
**Result** 0.701

**Query** GET /values?readout=phosphorylation enrichment&item= VDSNPYSHLMA [UBA5_Y53_R55H]
**Result** 0.891

**Query** Please give the measured phosphorylation enrichment for this sequence: LLAGLYRGQAL [FGFR4_Y390]
**Result** 0.571

**Query** Would you kindly share the measured phosphorylation enrichment for HSSPVYVGRVV [TGM2_Y219_R214H] ?
**Result** 6.86

**Query** // returns reported phosphorylation enrichment for input GTGTAYLCGVK [ALPL_Y117_A114G]
**Result** 0.395

**Query** // query phosphorylation enrichment value for entry VFGVSYDEFRF [CFTR_Y512_I507V_YF]
**Result** 1.25

**Query** Form field: reported phosphorylation enrichment of PVGVLYEVKVF [PTS_Y128_K129E_YF]
**Result** 0.986

**Query** Request the reported phosphorylation enrichment associated with LEAVSYSSPFA [RNLS_Y190_R193P_YF]
**Result** 0.615

**Query** Data request, read-out phosphorylation enrichment, for HSLLQYGGSAN [ANK1_Y624_R619H]
**Result** 0.505

**Query** Name the recorded phosphorylation enrichment for DRLASYLDKVR [KRT10_Y160] .
**Result** 0.454

**Query** Which measured phosphorylation enrichment value corresponds to PSDPSYEDTRE [BMPR1A_Y467_M470T] ?
**Result** 1.19

**Query** Reported phosphorylation enrichment for EFFDGYWGFSV [ITGA2B_Y265_YF] : what is it?
**Result** 3.31

**Query** # query: phosphorylation enrichment of entry KLKEKYQKDIA [HMGB1_Y155_E156Q]
**Result** 0.487

**Query** Which measured phosphorylation enrichment value corresponds to EDEGLYMVRVP [MYOM3_Y343] ?
**Result** 4.63

**Query** // lookup phosphorylation enrichment for GQLIFYAPPEW [CNTN6_Y315]
**Result** 0.829

**Query** Suppose we examine the sequence KCCCIYEKPRA [PPP1R11_Y64] ; what phosphorylation enrichment value has been reported?
**Result** 2.67

**Query** Look up phosphorylation enrichment for this sequence: FSTDFYRVGGH [NTRK2_Y707_YF]
**Result** 0.396

**Query** What value of phosphorylation enrichment has been reported for the following sequence? RLLVVYPWTQG [HBG2_Y36_R41G]
**Result** 0.416

**Query** Would you kindly share the measured phosphorylation enrichment for EYFENYIEELK [PARP4_Y218] ?
**Result** 0.607

**Query** Requested field: phosphorylation enrichment. Item: AERKLYRNVML [ZNF569_Y33_Q29E]
**Result** 0.319

**Query** Data request, read-out phosphorylation enrichment, for TEQDPYNSIVR [MMUT_Y364_N366S]
**Result** 0.551

**Query** Please give the measured phosphorylation enrichment for this sequence: SVVVLYEPPEV [TP53_Y220_P219L]
**Result** 1.42

**Query** Can you share its phosphorylation enrichment? I mean this sequence: QQPGPYDRPGA [HNRNPH2_Y210_R206Q]
**Result** 0.662

**Query** Using the record for GPGLVYGVANK [FLNB_Y1833] , report its phosphorylation enrichment.
**Result** 3.44

**Query** So what's the measured phosphorylation enrichment for this one? PYAEPYADYGG [APBA1_Y187_S184A]
**Result** 1.19

**Query** Quick check: phosphorylation enrichment of NAMRRHIEEFQ [MNS1_Y244_Y244H] ?
**Result** 0.366

**Query** Reported phosphorylation enrichment for HNMPIYEGFAL [ACTA1_Y168_V165M_YF] : what is it?
**Result** 15.6

**Query** Please give the measured phosphorylation enrichment for this sequence: MSRNLYSGDCY [DDR2_Y736_Y740C]
**Result** 2.27

**Query** Look up phosphorylation enrichment: SNKLHYQLEQE [PDPR_Y110_Y109H]
**Result** 0.535

**Query** Recorded phosphorylation enrichment of TGYRPYVCPFD [YY1_Y383_D380Y] , please.
**Result** 0.525

**Query** Entry SHKELYKWFTS [DYNC1H1_Y3051_E3048K] : reported phosphorylation enrichment = ?
**Result** 0.566

**Query** Field request: phosphorylation enrichment | item: LQIPMYEVQWK [KIT_Y553_K550I]
**Result** 2.24

**Query** # input sequence: GCRSKYVRLWG [KCNQ1_Y184_G186R] ; wanted: its phosphorylation enrichment
**Result** 0.461

**Query** Would you kindly share the measured phosphorylation enrichment for FLQTDYTSQVS [FRMPD1_Y846] ?
**Result** 0.417

**Query** Query: phosphorylation enrichment; subject: VGRVGYVSGWG [HP_Y280]
**Result** 0.415

**Query** # input sequence: SISLKYEGRVY [ABL1_Y167_R166K] ; wanted: its phosphorylation enrichment
**Result** 0.507

**Query** Give the measured phosphorylation enrichment of WCSNDHLGMSR [ALAS2_Y199_Y199H] .
**Result** 0.375

**Query** // lookup phosphorylation enrichment for SVTCTGSPALN [TP53_Y126_Y126G]
**Result** 0.459

**Query** Can you look up the measured phosphorylation enrichment of GGQVFHNSEYG [FLT4_Y1333_Y1333H] for me?
**Result** 0.377

**Query** Form field: reported phosphorylation enrichment of TLSGIYQYNIA [FOXL2_Y81_I84N]
**Result** 4.79

**Query** Entry under review: ANNPLYKEATS [ITGB3_Y773] . Reported phosphorylation enrichment?
**Result** 0.385
